Target: Carbonic anhydrase 2 (Homo sapiens, UniProt P00918)
Assay: Inhibitory activity against human carbonic anhydrase II using pH stat assay
Assay type: functional
Conditions: read-out: I50
Each item that follows carries a reported log10 IC50.
Remember, log10 of IC50, in nM.

Sample answers from the record:
INSERT INTO results (smiles, target_entity, endpoint_result) VALUES
  ('NS(=O)(=O)c1ccc(SCCCCO)cc1', 'Carbonic anhydrase 2 (Homo sapiens, UniProt P00918)', 0.95),
  ('NS(=O)(=O)c1ccc(S(=O)(=O)CCCO)cc1', 'Carbonic anhydrase 2 (Homo sapiens, UniProt P00918)', 1.08),
  ('CC(C)(O)CCS(=O)(=O)c1ccc(S(N)(=O)=O)cc1', 'Carbonic anhydrase 2 (Homo sapiens, UniProt P00918)', 1.40),
  ('CC(=O)OCCS(=O)(=O)c1ccc(S(N)(=O)=O)s1', 'Carbonic anhydrase 2 (Homo sapiens, UniProt P00918)', 0.74);

Memo: NS(=O)(=O)c1ccc(S(=O)(=O)CCCO)c(C(=O)O)c1 , reported log10 IC50: 2.95

Lookup result for COC(=O)c1cc(S(N)(=O)=O)ccc1S(=O)(=O)CCCO ; measured log10 IC50: 1.30

Form field log10 IC50, entry NS(=O)(=O)c1ccc(SCCCO)c(F)c1 : 0.54

Short answer for Nc1cc(S(N)(=O)=O)ccc1S(=O)(=O)CCCO : log10 IC50 was 1.36

For COC(=O)c1cc(S(N)(=O)=O)ccc1SCCCO the molecule record lists log10 IC50 as 2.85

Entry NS(=O)(=O)c1ccc(SCCCCO)c(F)c1 — recorded log10 IC50 = 0.18

For this molecule ( NS(=O)(=O)c1ccc(S(=O)(=O)CCCCO)cc1 ), measured log10 IC50 is 0.85

Lookup result for NS(=O)(=O)c1ccc(SCCCCCO)cc1 ; measured log10 IC50: 0.63

---

Below, each of the molecules is paired with its reported pKa value.
Experiment: Dissociation constant (pKa) (determined in 30% EtOH/water)
Format: physicochemical
The answer should be a number; do not append a unit.

Below, each entry is followed by its recorded pKa result.
INSERT INTO results (smiles, recorded_endpoint, endpoint_result) VALUES
  ('NS(=O)(=O)c1ccc(S(=O)(=O)CCCO)s1', 'pKa', 8.32),
  ('NS(=O)(=O)c1ccc(SCCCCO)cc1', 'pKa', 10.2),
  ('NS(=O)(=O)c1ccc(S(=O)(=O)CCCO)c([N+](=O)[O-])c1', 'pKa', 8),
  ('NS(=O)(=O)c1ccc(SCCCO)s1', 'pKa', 9.32),
  ('NS(=O)(=O)c1ccc(S(=O)(=O)CCCCO)cc1', 'pKa', 9.6);

In the following, a different molecule is considered.
// sample NS(=O)(=O)c1ccc(SCCCO)c([N+](=O)[O-])c1 , its pKa was 9.38

---

Assay: Partition coefficient (pH 7.4)
Format: ADME
Settings: octanol/water
RECORDED_ENDPOINT: D

INSERT INTO measurements (smiles, endpoint_result) VALUES
  ('Nc1cc(S(N)(=O)=O)ccc1S(=O)(=O)CCCO', 0.33);

The reported D of the compound NS(=O)(=O)c1ccc(S(=O)(=O)CCCO)c(C(=O)O)c1 was 0.002

Measured D, NS(=O)(=O)c1ccc(S(=O)(=O)CCCO)s1 : 0.44

The recorded D for CC(=O)OCCCS(=O)(=O)c1ccc(S(N)(=O)=O)s1 is 1.47

Form field D, entry COCC(=O)OCCCS(=O)(=O)c1ccc(S(N)(=O)=O)s1 : 0.72

Looking up NS(=O)(=O)c1ccc(SCCCO)c([N+](=O)[O-])c1 , I found its D recorded as 9.1

GET /value?item= COC(=O)c1cc(S(N)(=O)=O)ccc1S(=O)(=O)CCO &field=D returns 0.34

Input NS(=O)(=O)c1ccc(SCCO)cc1 . Output D: 2.3

Field D (entry NS(=O)(=O)c1ccc(SCCCCO)c(F)c1 ) reads 19

Record NS(=O)(=O)c1ccc(SCCCO)cc1 , field D: 6.25

Entry NS(=O)(=O)c1ccc(SCCO)c(F)c1 , D reported as 5.3

Note to self: D recorded for NS(=O)(=O)c1ccc(SCCCO)s1 was 7

The compound listed as NS(=O)(=O)c1ccc(S(=O)(=O)CCO)s1 has a reported D of 0.29

Briefly, D measured for CC(C)CNCCCS(=O)(=O)c1ccc(S(N)(=O)=O)s1 : 0.45

Lab note: measured D of NS(=O)(=O)c1ccc(SCCCO)c(F)c1 was 9.8

Note to self: D recorded for NS(=O)(=O)c1ccc(S(=O)(=O)CCCO)c([N+](=O)[O-])c1 was 0.9

# D of CC(C)(O)CCSc1ccc(S(N)(=O)=O)cc1 = 25.2

So, NS(=O)(=O)c1ccc(SCCCCCO)cc1 ? Its D was 10.9

---

Experiment: Solubility (buffer pH 7.4)
Assay type: physicochemical
Settings: read-out: S
Recorded log10(solubility) by entry
The base-10 logarithm of solubility, taken with solubility in µg/mL, is what appears here.

Below are worked cases with known answers.
INSERT INTO measurements (molecule, recorded_endpoint, endpoint_result) VALUES
  ('NS(=O)(=O)c1ccc(S(=O)(=O)CCCCO)s1', 'log10(solubility)', 4.00),
  ('CC(C)(O)CCS(=O)(=O)c1ccc(S(N)(=O)=O)cc1', 'log10(solubility)', 3.54),
  ('NS(=O)(=O)c1ccc(CCCCO)cc1', 'log10(solubility)', 4.17),
  ('Nc1cc(S(N)(=O)=O)ccc1S(=O)(=O)CCCO', 'log10(solubility)', 3.92),
  ('COCC(=O)OCCCS(=O)(=O)c1ccc(S(N)(=O)=O)s1', 'log10(solubility)', 2.99);

Short answer for NS(=O)(=O)c1ccc(CCCCCO)cc1 : log10(solubility) was 3.41

log10(solubility) measured on CC(C)(O)CCSc1ccc(S(N)(=O)=O)cc1 = 2.60

For this molecule ( NS(=O)(=O)c1ccc(S(=O)(=O)CCCO)s1 ), measured log10(solubility) is 4.16

---

Experiment: Partition coefficient (pH 7.4)
Type: ADME
Conditions: octanol/water
compounds and their reported D
Number, no unit, nothing else.

Solved entries (count: 5):
INSERT INTO measurements (smiles, endpoint_result) VALUES
  ('NS(=O)(=O)c1ccc(SCCO)s1', 2.4),
  ('NS(=O)(=O)c1ccc(S(=O)(=O)CCO)c(F)c1', 0.25),
  ('NS(=O)(=O)c1ccc(S(=O)(=O)CCCO)c(F)c1', 0.39),
  ('NS(=O)(=O)c1ccc(SCCCO)c(C(=O)O)c1', 0.01),
  ('NS(=O)(=O)c1ccc(S(=O)(=O)CCCCO)c(F)c1', 0.55);

D reading for CC(=O)OCCS(=O)(=O)c1ccc(S(N)(=O)=O)s1 : 1.3

Record summary for NS(=O)(=O)c1ccc(CCCCCO)cc1 : reported D = 11

Kindly note the recorded D for CC(C)(O)CCS(=O)(=O)c1ccc(S(N)(=O)=O)cc1 , which is 0.82

Memo: NS(=O)(=O)c1ccc(SCCCO)c(Cl)c1 , reported D: 39

Just so you know, measured D for COC(=O)c1cc(S(N)(=O)=O)ccc1SCCCO came out at 5.5

// D lookup, compound = NS(=O)(=O)c1ccc(S(=O)(=O)CCO)cc1 , result: 0.14

Record summary for NS(=O)(=O)c1ccc(SCCO)c(C(=O)O)c1 : reported D = 0.01

---

The molecules listed here are annotated with their log10 solubility.
Test: Solubility (buffer pH 7.4)
Format: physicochemical
Conditions: read-out: S
Remember, log10 of solubility, in µg/mL.

INSERT INTO results (molecule, endpoint_result) VALUES
  ('NS(=O)(=O)c1ccc(S(=O)(=O)CC(O)CO)cc1 (stereo not given)', 4.17),
  ('NS(=O)(=O)c1ccc(SCCO)cc1', 3.54),
  ('CC(=O)OCCS(=O)(=O)c1ccc(S(N)(=O)=O)s1', 2.94),
  ('NS(=O)(=O)c1ccc(SCCCO)c(F)c1', 2.95);

Next, consider the following molecule.
For reference, reported log10 solubility for NS(=O)(=O)c1ccc(SCCCCO)cc1 stands at 2.90

---

Assay: Partition coefficient (pH 7.4)
Assay type: ADME
Conditions: octanol/water
// boundary case: D equal to 0.5 maps to False; strictly smaller maps to True

Below are worked cases with known answers.
INSERT INTO measurements (smiles, assigned_class) VALUES
  ('NS(=O)(=O)c1ccc(CCCCO)cc1', 'False'),
  ('NS(=O)(=O)c1ccc(SCCCCO)cc1', 'False'),
  ('CC(=O)OCCCc1ccc(S(N)(=O)=O)cc1', 'False');

Now let's try a different one.
[in] is_below(D, 0.5) for NS(=O)(=O)c1ccc(S(=O)(=O)CCCCO)s1 ?
[out] True
